molecular target: P.1 Spike (SARS-CoV2)
measured.metric: Response
// keep it numeric: no unit symbol after the value

In the examples that follow, each entry is paired with its recorded Response.
[
  {
    "binder": "Ab_19 scFv-Fc (scFv, V domains shown) VH: EVQLVESGAEVKKPGESLKISCKGSGYSFTSYWIGWVRQMPGKGLEWMGIIYPGDSDTRYSPSFQGQVTISADKSISTAYLQWSSLKASDTAMYYCARRGDLDAFDIWGQGTMVTVSS VL: QPGLTQPPAASGTPGQRVTVSCSGASANIGSNAVSWFKQFPETAPRLLISGNTHRPSGVPDRVSGSKSGTSASLTISGLQSDDEADYYCAAWDDSLNGYVFGSGTKVTVL",
    "Response": 0.204
  },
  {
    "binder": "Ab_28 scFv-Fc (scFv, V domains shown) VH: QVTLKESGPGLVNPSETLSLTCTVSGASISNSFWSWIRQSPGKGLEWIGYTSYSGNSIYNPSLKSRLTMSIDTSKNQLSLNLRSLTAADTAVYYCARREWIKGHFDYWGQGTLVTVSS VL: NFMLTQPHSVSESPGKTVTISCTGSGGSIASNYVQWYQQRPGSAPTTVIYEDNQRPSGVPDRFSGSIDSSSNSASLTISGLKTEDEADYYCQSYDSSNPVVFGGGTKLTVL",
    "Response": 0.102
  }
]

Incoming: What does the data say about its Response? Entry: Ab_25 scFv-Fc (scFv, V domains shown) VH: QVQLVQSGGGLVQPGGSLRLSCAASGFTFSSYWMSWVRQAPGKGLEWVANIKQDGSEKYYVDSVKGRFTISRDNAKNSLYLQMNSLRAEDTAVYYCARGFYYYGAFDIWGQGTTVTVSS VL: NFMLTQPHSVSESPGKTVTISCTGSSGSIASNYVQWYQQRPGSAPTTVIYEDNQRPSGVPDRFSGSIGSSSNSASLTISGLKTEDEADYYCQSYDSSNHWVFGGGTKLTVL
Outgoing: 0.0396

Incoming: Now try Ab_16 scFv-Fc (scFv, V domains shown) VH: QVQLVQSGGGVVQPGRSLRLSCAASGFTFSNYGMHWVRQAPGKGLEWVALIWERGSKKDYADSVKGRFTVSRDNSKNTLYLQMNSLRPEDTAVYFCAREGISMTGAEYFQHWGQGTLVTVSS VL: QSVLTQPPSVSGSPGQRVTMSCTGSSSNIGAGYDVHWYQQVPGAAPRLLIYGTNNRPSGVPDRFSGSKSGTSASLTITGLQAEDEADYYCQSYDNSLTDPYVFGTGTKVTVL .
Outgoing: 0.35

Incoming: Cool, now Ab_18 scFv-Fc (scFv, V domains shown) VH: EVQLVQSGGGVVQPGRSLRVSCAASGFSFSRYGMHWVRQAPGKGLEWVAFIRHDGSKKYYADSVEGRFTISRDNSRNTVSLEMNSLRGEDTAVYYCAKDGRLEAALDDWGQGTLVTVSS VL: NFMLTQPHSMSGSAGKTVTVSCIRSSGSIANNFVQWYQQRPGSAPTTVIYEDNQRPSGVPDRFSGSIDSSSNSASLTISGLKTEDEADYYCQSYDSSNLVFGGGTRLTVL
Outgoing: 0.109

Origin of measurements: patent US20240409617A1
